The values you see were collected from paper PMC11620503.

- Target Entity: CTX-M-27 (Escherichia coli)
- Test Name: Ki app determination (Waley's method)
Listed molecules paired with reported Ki
Report the figure in nM without appending any unit label.

C[C@]1(Cn2ccnn2)[C@H](C(=O)O)N2C(=O)C[C@H]2S1(=O)=O
0.0403

Just so you know, measured Ki for O=C(O)C[C@@H]1CC[C@H](NC(=O)Cc2cccs2)B(O)O1 came out at 351

O=C(NC1CCNCC1)[C@@H]1CC[C@@H]2CN1C(=O)N2OS(=O)(=O)O has a reported Ki of 3.62

Ki recorded for this molecule, NC(=O)[C@@H]1CC[C@@H]2CN1C(=O)N2OS(=O)(=O)O , is 1.29

For N[C@@H](C(=O)N1CC(Oc2ccc3c(c2C(=O)O)OB(O)CC3)C1)c1c[nH]cn1 the molecule record lists Ki as 0.159
